- Target: human PD-L1 (human) (UniProt Q9NZQ7)
- Sequence (Q9NZQ7 19-290): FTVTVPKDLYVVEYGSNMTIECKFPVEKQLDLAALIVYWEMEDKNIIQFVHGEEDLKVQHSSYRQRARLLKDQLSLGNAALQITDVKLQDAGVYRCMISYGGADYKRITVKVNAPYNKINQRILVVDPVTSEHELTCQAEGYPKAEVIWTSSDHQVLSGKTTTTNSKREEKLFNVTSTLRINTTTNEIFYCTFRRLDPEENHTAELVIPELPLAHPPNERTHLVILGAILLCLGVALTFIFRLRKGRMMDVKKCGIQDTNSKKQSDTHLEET
- Run description: flow cytometry, CHO cells stably expressing PD-L1
Quantity: Fold change to WT CD80
Write the figure, then the unit, nothing else.

{"Binder": "CD80 IgV-Fc H18Y/E35D/M47V/V68M/L85M (Fc fusion) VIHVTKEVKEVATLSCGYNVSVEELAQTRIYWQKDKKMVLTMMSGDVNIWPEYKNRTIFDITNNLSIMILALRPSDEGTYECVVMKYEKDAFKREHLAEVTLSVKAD", "Result": "43.6 fold"}
{"Binder": "variant CD80 IgV-Fc M47L/V68M/A71G/D90G (Fc fusion) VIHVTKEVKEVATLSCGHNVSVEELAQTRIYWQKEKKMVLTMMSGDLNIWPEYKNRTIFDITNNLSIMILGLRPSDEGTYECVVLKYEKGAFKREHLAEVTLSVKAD", "Result": "714 fold"}
{"Binder": "variant CD80 IgV-Fc H18Y/A26E/V68M/D90G (Fc fusion) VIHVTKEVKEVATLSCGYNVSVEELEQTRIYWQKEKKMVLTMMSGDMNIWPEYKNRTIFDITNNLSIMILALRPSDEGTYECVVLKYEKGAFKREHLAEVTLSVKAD", "Result": "295 fold"}

Then there is this binder:
Entry variant CD80 IgV-Fc A26E/V68M/A71G/D90G (Fc fusion) VIHVTKEVKEVATLSCGHNVSVEELEQTRIYWQKEKKMVLTMMSGDMNIWPEYKNRTIFDITNNLSIMILGLRPSDEGTYECVVLKYEKGAFKREHLAEVTLSVKAD , Fold change to WT CD80 reported as 73.3 fold
